Listed sequences paired with reported self-splicing fitness (ln)
# assay-summary: self-splicing fitness, log relative to wild type (ln ratio); higher = more splicing; Tetrahymena group I intron in knt gene, E. coli kanamycin selection, DiMSum; sequences stand for … in CUCUCU…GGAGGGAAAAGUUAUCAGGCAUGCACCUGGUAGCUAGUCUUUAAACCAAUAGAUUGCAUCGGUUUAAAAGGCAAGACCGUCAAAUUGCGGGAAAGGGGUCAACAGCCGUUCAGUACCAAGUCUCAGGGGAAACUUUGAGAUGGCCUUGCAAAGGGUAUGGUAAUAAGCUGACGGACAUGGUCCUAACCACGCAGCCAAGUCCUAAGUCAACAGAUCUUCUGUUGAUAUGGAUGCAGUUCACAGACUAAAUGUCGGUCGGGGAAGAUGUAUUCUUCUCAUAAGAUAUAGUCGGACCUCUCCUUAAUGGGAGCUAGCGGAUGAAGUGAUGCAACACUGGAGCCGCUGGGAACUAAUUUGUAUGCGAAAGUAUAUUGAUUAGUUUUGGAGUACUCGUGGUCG;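 further: selection with 25 µg/mL kanamycin versus none on LB agar overnight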
# assay-context: 30 °C

Here's what some known entries look like.
GCCGAGCAAUAUUACGAGAA: -2.99
CACUAGCAAUAUUACGUAGA: -3.01

Continue with the sequence presented below.
Any idea what self-splicing fitness (ln) was measured for CGCAAGCAAUAUUACGCGGA ?
-2.93

----------
# assay-summary: self-splicing fitness, log relative to wild type (ln ratio); higher = more splicing; Tetrahymena group I intron in knt gene, E. coli kanamycin selection, DiMSum; sequences stand for … in CUCUCU…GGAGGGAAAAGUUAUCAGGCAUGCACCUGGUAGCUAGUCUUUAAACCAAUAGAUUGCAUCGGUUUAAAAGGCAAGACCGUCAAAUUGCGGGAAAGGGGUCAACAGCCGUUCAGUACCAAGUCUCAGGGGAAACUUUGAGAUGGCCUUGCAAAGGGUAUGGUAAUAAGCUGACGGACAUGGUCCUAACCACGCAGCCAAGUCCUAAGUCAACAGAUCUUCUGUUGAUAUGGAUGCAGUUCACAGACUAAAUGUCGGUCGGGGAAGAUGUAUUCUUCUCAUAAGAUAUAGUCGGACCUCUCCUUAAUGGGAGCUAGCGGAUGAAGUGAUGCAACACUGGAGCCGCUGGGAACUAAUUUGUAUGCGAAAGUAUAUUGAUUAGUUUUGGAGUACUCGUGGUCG
# assay-context: 37 °C
Listed sequences paired with reported self-splicing fitness (ln)
Answer with a bare number; do not write a unit.

GCAUAGCAAUAUUACGCCGG: -1.01
GGACAGCAAUAUUACGUCGG: -0.674
UUACAGCAAUAUUACGAAUG: -0.991
UACCAGCAAUAUUACGCUAC: -1.83

Continue with the sequence presented below.
Any idea what self-splicing fitness (ln) was measured for CGGCAGCAAUAUUACGGAGA ?
-1.62

----------
# assay-summary: self-splicing fitness, log relative to wild type (ln ratio); higher = more splicing; Tetrahymena group I intron in knt gene, E. coli kanamycin selection, DiMSum; sequences stand for … in CUCUCU…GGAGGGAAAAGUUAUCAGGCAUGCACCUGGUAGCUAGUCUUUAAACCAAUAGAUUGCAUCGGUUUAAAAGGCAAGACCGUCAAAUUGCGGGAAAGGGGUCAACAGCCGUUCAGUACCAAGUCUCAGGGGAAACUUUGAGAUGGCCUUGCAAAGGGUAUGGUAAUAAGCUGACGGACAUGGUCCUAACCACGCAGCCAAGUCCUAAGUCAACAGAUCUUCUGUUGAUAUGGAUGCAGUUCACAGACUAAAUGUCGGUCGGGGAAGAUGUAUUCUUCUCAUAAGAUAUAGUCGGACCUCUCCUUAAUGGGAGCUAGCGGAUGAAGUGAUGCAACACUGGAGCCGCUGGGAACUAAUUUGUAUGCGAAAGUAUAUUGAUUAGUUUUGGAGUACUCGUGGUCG
# assay-context: 30 °C
Classification field: enter condition met for self-splicing fitness (ln) values not below -2, condition not met for values below it.

Use the examples below as a reference point.
CAAAAGCAAUAUUACGCAUA: condition not met
UAGUAGCAAUAUUACGGGAU: condition not met
AGGCAGCAAUAUUACGCUAG: condition not met

Does self-splicing fitness (ln) meet or surpass -2 for CCACAGCAAUAUUACGCCUU ?
condition not met

Now this one: AAACAGCAAUAUUACGCCCG
condition met

----------
# assay-summary: self-splicing fitness, log relative to wild type (ln ratio); higher = more splicing; Tetrahymena group I intron in knt gene, E. coli kanamycin selection, DiMSum; sequences stand for … in CUCUCU…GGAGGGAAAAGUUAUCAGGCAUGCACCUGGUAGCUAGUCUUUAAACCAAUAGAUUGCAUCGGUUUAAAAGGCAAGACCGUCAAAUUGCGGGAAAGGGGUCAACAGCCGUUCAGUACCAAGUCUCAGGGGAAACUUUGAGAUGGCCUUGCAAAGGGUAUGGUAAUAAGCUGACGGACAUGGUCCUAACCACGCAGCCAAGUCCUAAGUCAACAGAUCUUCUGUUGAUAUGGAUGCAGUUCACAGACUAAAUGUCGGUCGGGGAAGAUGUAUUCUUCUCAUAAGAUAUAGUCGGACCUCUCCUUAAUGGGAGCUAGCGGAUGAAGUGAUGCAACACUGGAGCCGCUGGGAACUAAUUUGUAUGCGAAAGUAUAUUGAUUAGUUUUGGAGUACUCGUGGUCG
# assay-context: 30 °C
Listed sequences paired with reported self-splicing fitness (ln)
Answer with a bare number; do not write a unit.

Any idea what self-splicing fitness (ln) was measured for GGCAAGCAAUAUUACGCAGG ?
-2.1

Now this one: UAGUAGCAAUAUUACGGAUC
-2.87

Now this one: CAGCAGCAAUAUUACGCUUA
-1.51

----------
Listed sequences paired with reported self-splicing fitness (ln)
# assay-summary: self-splicing fitness, log relative to wild type (ln ratio); higher = more splicing; Tetrahymena group I intron in knt gene, E. coli kanamycin selection, DiMSum; sequences stand for … in CUCUCU…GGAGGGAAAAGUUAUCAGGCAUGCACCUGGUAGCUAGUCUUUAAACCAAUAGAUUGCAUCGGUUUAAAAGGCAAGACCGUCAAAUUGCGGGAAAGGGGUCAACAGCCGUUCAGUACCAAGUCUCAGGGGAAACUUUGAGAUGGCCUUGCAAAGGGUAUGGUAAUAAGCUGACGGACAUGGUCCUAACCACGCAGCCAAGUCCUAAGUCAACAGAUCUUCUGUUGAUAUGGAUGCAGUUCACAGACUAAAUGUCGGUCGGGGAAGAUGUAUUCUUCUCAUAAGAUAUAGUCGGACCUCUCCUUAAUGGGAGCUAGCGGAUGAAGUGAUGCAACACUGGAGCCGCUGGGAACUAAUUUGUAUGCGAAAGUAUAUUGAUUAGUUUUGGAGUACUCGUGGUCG
# assay-context: 37 °C
Answer with a bare number; do not write a unit.

ACAAAGCAAUAUUACGUCCA: -0.403
AUAUAGCAAUAUUACGAGAU: -0.91
UCUCAGCAAUAUUACGACAA: -1.31

Any idea what self-splicing fitness (ln) was measured for UGUUAGCAAUAUUACGAAGU ?
-2.76

----------
# assay-summary: self-splicing fitness, log relative to wild type (ln ratio); higher = more splicing; Tetrahymena group I intron in knt gene, E. coli kanamycin selection, DiMSum; sequences stand for … in CUCUCU…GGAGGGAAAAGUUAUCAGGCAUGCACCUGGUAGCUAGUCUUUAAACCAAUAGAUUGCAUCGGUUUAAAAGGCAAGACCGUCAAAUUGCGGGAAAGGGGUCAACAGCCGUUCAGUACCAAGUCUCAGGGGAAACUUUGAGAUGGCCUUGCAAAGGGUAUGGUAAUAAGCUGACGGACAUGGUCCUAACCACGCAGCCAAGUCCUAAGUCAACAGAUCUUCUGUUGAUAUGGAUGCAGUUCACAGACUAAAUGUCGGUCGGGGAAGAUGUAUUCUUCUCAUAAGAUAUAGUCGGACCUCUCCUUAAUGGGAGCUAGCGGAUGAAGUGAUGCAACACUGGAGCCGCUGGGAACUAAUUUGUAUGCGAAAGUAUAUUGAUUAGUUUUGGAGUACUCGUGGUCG
# assay-context: 37 °C
endpoint: self-splicing fitness (ln)
Answer with a bare number; do not write a unit.

Here's what some known entries look like.
AUAGAGCAAUAUUACGCACG: -0.997
AGUGAGCAAUAUUACGCCCA: -2.42
UUUUAGCAAUAUUACGGUUU: -0.0249
UUGAAGCAAUAUUACGGUUC: -2.08
UAUAAGCAAUAUUACGUGAC: -0.695

Any idea what self-splicing fitness (ln) was measured for CAAAAGCAAUAUUACGCUAC ?
-2.59

Now this one: GUAUAGCAAUAUUACGGCCC
-0.246

Now this one: CCAGAGCAAUAUUACGUAGA
-2.08

Now this one: GGGUAGCAAUAUUACGGCCU
-2.14

Now this one: UCCGAGCAAUAUUACGUUAC
-1.63

Now this one: UUCCAGCAAUAUUACGACAA
0.128

Now this one: GGCCAGCAAUAUUACGAGGC
-2.94

Now this one: AUUGAGCAAUAUUACGAGGU
-2.02

Now this one: UUCCAGCAAUAUUACGUGUC
-1.48

Now this one: CACAAGCAAUAUUACGUAGC
-2.59

Now this one: CCGUAGCAAUAUUACGUUCA
-1.91

Now this one: GUAUAGCAAUAUUACGGUUC
-0.0871

Now this one: GGCCAGCAAUAUUACGUCUG
-2.93

Now this one: CGCAAGCAAUAUUACGGGCG
-2.76

These data points were gathered from the supplement of paper PMC7877785.
